experimental_target: T1, wild-type human PTHR (human, UniProt Q03431 27-593)
T1 construct: whole, on cells; also called PTHR-WT; intact PTHR
T1 sequence (looked up): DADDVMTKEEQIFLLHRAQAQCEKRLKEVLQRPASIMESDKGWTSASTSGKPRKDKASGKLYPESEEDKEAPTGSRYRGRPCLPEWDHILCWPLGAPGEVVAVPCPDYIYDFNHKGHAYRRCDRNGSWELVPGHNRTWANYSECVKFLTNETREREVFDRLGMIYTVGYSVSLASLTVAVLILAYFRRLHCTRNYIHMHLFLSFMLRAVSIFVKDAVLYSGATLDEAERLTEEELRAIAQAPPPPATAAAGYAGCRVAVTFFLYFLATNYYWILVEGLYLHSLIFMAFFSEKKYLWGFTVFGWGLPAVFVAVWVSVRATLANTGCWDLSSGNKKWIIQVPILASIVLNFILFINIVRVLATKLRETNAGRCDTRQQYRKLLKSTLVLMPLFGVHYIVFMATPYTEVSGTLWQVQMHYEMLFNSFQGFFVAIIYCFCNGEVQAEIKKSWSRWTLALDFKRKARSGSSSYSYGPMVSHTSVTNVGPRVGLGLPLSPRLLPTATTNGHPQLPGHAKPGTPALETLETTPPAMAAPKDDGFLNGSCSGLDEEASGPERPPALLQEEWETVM
method_description: competition binding, HKRK-B7 cells, 125I-PTH(1-34) tracer
Where no end group is shown, it is not given here.
Reported IC50 values for a set of binders
Hi! Could you send only the number? It should be in nM, unit omitted.

Value of measured IC50 for the entry SVSEIQLMHNLGKHLNAMERVEWLRKKLQDV-NH2 [PTH(1-31)NH2 Ser^17→Ala] : 57

Value of measured IC50 for the entry SVSEIQLMHNLGKHLNSMARVAWLRKKLQDV-NH2 [PTH(1-31)NH2 Glu^19,22→Ala,Ala] : 49

Value of measured IC50 for the entry SVSEIQLMHNLGKHLNSMRRVEWLRKKLQDV-NH2 [PTH(1-31)NH2 Glu^19→Arg] : 42

Value of measured IC50 for the entry SVSEIQLMHNLGKHLNSMERAEWLRKKLQDV-NH2 [PTH(1-31)NH2 Val^21→Ala] : 200

Value of measured IC50 for the entry SVSEIQLMHNLGKHLNSMERVAWLRKKLQDV-NH2 [PTH(1-31)NH2 Glu^22→Ala] : 36

Value of measured IC50 for the entry SVSEIQLMHNLGKHLNSMERVEWLRKKLQDV-NH2 (also called hPTH(1-31)NH2; parental PTH(1-31)NH2 peptide) [human PTH(1-31)NH2] : 68

With those in mind, consider the next binder.
Value of measured IC50 for the entry SVSEIQLMHNLGKHLNSMERVEWLRKKAQDV-NH2 [PTH(1-31)NH2 Leu^28→Ala] : 290
